molecular target: Epidermal growth factor receptor (Homo sapiens); assay: Inhibition of wild type EGFR (unknown origin) by ELISA
Test Readout: pIC50
For clarity, pIC50 is expressed as the negative log10 of concentration in mol/L.

The following molecules have reported results that may help.
{"Given Smiles": "CCS(=O)(=O)n1cc2c3ccc(cc31)OCCCCCCOc1cc(c(F)cc1N1CCOCC1)Nc1ncc(Cl)c-2n1", "pIC50": 6.05}
{"Given Smiles": "CCS(=O)(=O)n1cc(-c2nc(Nc3cc(Cl)c(N4CCC(N5CCN(C)CC5)CC4)cc3OC)ncc2Cl)c2ccccc21", "pIC50": 6.09}
{"Given Smiles": "CCS(=O)(=O)n1cc(-c2nc(Nc3ccc(N4CCC(N5CCN(C)CC5)CC4)c(Cl)c3)ncc2Cl)c2ccccc21", "pIC50": 6.33}

Assign pIC50 to the following record: CCS(=O)(=O)n1cc(-c2nc(Nc3cc(C)c(N4CCC(N5CCN(C)CC5)CC4)cc3OC)ncc2Cl)c2ccccc21
7.25

Read the entry CCS(=O)(=O)n1cc2c3ccc(cc31)OCCCCCCOc1cc(ccc1N1CCOCC1)Nc1ncc(Cl)c-2n1 and write its reported pIC50.
6.63

Please report pIC50 for the following molecule: CCS(=O)(=O)n1cc(-c2nc(Nc3cc(Cl)c(N4CCC(N5CCN(C)CC5)CC4)cc3OC(C)C)ncc2Cl)c2ccccc21
6.38

---

Measured IC50 by item
target: Epidermal growth factor receptor (Homo sapiens, UniProt P00533, L858R/T790M); assay: Inhibition of EGFR L858R/T790M mutant (unknown origin) by ELISA
Sequence (P00533 25-1210 T790M/L858R limits assumed): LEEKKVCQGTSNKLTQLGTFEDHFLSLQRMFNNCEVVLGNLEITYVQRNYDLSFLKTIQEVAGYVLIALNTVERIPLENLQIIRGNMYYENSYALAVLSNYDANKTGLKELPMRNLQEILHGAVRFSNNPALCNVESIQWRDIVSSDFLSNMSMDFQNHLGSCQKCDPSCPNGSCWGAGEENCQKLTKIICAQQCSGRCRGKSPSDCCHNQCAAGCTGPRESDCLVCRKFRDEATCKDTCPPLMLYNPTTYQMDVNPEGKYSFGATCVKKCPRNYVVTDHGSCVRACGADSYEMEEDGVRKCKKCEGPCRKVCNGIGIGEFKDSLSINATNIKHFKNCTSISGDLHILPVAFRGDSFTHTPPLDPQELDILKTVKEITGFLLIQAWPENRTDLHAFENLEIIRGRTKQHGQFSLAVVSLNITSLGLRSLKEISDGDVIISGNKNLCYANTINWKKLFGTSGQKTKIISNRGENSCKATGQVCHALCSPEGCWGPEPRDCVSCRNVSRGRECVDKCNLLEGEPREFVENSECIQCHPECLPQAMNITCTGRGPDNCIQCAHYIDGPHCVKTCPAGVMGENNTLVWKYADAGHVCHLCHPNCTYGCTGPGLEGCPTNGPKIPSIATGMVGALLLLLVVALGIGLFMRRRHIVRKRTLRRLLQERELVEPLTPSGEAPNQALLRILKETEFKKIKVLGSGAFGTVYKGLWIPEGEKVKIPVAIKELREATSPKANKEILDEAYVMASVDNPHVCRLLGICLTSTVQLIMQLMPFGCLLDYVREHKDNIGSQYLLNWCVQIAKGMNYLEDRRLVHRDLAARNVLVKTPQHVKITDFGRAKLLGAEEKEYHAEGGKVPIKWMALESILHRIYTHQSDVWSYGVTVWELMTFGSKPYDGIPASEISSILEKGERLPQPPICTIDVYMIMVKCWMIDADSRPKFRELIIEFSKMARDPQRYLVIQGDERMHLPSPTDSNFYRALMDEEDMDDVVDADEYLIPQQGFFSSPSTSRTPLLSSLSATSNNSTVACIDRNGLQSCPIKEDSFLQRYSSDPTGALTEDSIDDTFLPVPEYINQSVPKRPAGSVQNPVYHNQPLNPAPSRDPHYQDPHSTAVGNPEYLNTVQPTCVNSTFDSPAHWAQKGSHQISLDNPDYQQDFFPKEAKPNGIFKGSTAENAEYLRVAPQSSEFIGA
Express your answer in nM, writing the number without its unit.

{"Given Smiles": "COc1cc(N2CCC(N3CCN(C)CC3)CC2)ccc1Nc1ncc(Cl)c(-c2cn(C(C)=O)c3ccccc23)n1", "Test Readout": "IC50", "Readout Unit": "nM", "Reading": 12.9}
{"Given Smiles": "CCc1cc(Nc2ncc(Cl)c(-c3cn(S(=O)(=O)CC)c4ccccc34)n2)c(OC)cc1N1CCC(N2CCN(C)CC2)CC1", "Test Readout": "IC50", "Readout Unit": "nM", "Reading": 6.3}

State IC50 on Epidermal growth factor receptor (Homo sapiens, UniProt P00533, L858R/T790M). Entry: CCS(=O)(=O)n1cc(-c2nc(Nc3cc(C)c(N4CCC(N5CCN(C)CC5)CC4)cc3OC)ncc2Cl)c2ccccc21
2.7

---

target: Epidermal growth factor receptor (Homo sapiens, UniProt P00533, C797S/L858R/T790M); assay: Inhibition of EGFR L858R/T790M/C797S mutant (unknown origin) by ELISA
Sequence (P00533 25-1210 T790M/C797S/L858R limits assumed): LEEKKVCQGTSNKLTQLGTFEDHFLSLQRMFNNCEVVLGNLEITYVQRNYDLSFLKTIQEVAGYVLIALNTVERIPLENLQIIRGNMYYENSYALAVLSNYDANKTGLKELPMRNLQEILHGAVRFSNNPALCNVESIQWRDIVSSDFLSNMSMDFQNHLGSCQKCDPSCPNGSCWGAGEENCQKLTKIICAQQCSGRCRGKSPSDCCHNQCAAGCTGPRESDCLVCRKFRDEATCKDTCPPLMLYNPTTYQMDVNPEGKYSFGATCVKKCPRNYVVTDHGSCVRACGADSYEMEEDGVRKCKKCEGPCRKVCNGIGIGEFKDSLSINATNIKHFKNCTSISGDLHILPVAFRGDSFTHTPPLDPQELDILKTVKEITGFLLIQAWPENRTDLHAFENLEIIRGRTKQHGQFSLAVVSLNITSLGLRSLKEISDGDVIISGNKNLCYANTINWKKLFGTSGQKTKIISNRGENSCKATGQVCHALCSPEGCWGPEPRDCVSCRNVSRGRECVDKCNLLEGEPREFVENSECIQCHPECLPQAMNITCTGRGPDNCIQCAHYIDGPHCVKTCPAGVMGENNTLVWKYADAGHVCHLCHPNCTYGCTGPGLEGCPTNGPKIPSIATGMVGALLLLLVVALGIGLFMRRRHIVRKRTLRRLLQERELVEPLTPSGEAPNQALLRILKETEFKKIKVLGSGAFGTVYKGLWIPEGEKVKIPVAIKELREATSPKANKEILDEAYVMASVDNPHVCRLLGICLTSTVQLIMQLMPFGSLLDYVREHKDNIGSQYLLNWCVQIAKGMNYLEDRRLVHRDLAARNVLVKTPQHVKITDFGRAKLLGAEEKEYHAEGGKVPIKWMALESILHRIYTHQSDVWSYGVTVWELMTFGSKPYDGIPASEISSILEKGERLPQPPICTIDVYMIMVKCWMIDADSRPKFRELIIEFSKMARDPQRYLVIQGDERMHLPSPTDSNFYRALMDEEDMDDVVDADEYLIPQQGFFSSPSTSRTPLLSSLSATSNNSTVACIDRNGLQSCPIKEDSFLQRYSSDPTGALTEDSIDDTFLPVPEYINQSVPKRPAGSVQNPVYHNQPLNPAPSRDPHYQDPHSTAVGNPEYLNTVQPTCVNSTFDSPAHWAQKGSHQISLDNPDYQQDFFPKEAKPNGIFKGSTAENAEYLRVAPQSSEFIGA
Test Readout: IC50 (µM)
Form entry: value (µM) — number only.

Look over these answered cases.
{"Given Smiles": "CCS(=O)(=O)n1cc(-c2nc(Nc3cc(Cl)c(N4CCC(N5CCN(C)CC5)CC4)cc3C)ncc2Cl)c2ccccc21", "Readout Unit": "µM", "Reading": 0.0016}
{"Given Smiles": "COc1cc(N2CCC(N3CCN(C)CC3)CC2)ccc1Nc1ncc(Cl)c(-c2cn(S(C)(=O)=O)c3ccccc23)n1", "Readout Unit": "µM", "Reading": 0.0419}
{"Given Smiles": "CCS(=O)(=O)n1cc(-c2nc(Nc3cc(Cl)c(N4CCC(N5CCN(C)CC5)CC4)cc3OC)ncc2Cl)c2ccccc21", "Readout Unit": "µM", "Reading": 0.0043}

Supply recorded IC50 for CCc1cc(N2CCOCC2)c2cc1Nc1ncc(Cl)c(n1)-c1cn(S(=O)(=O)CC)c3cc(ccc13)OCCCCCCO2 here.
0.0321

Identify measured IC50 corresponding to CCS(=O)(=O)n1cc(-c2nc(Nc3ccc(N4CCC(N5CCN(C)CC5)CC4)cc3OC)ncc2Cl)c2ccccc21
0.0348

Respond only with IC50 recorded for CCS(=O)(=O)n1cc2c3ccc(cc31)OCCCCCCOc1cc(c(C)cc1N1CCOCC1)Nc1ncc(Cl)c-2n1
0.0236

Recall and state the measured IC50 for CCS(=O)(=O)n1cc2c3ccc(cc31)OCCCCCCOc1cc(c(C3CCCC3)cc1N1CCOCC1)Nc1ncc(Cl)c-2n1 .
0.165

---

target: Epidermal growth factor receptor (Homo sapiens, UniProt P00533, L858R/T790M); assay: Inhibition of EGFR L858R/T790M mutant (unknown origin) by ELISA
pIC50: −log10 of the molar value.
Mark Not satisfied for pIC50 values under 8, and Satisfied for everything at or above.

The examples below pair each entry with its known result.
{"Given Smiles": "CCS(=O)(=O)n1cc(-c2nc(Nc3cc(Cl)c(N4CCC(N5CCN(C)CC5)CC4)cc3OC(C)C)ncc2Cl)c2ccccc21", "Class": "Satisfied"}
{"Given Smiles": "COc1cc(N2CCC(N3CCN(C)CC3)CC2)ccc1Nc1ncc(Cl)c(-c2cn(S(=O)(=O)C(C)C)c3ccccc23)n1", "Class": "Not satisfied"}
{"Given Smiles": "CCS(=O)(=O)n1cc(-c2nc(Nc3cc(C(C)C)c(N4CCC(N5CCN(C)CC5)CC4)cc3OC)ncc2Cl)c2ccccc21", "Class": "Not satisfied"}
{"Given Smiles": "COc1cc(N2CCC(N3CCN(C)CC3)CC2)ccc1Nc1ncc(Cl)c(-c2cn(S(=O)(=O)C3CC3)c3ccccc23)n1", "Class": "Not satisfied"}

Decide: pIC50 of CCS(=O)(=O)n1cc(-c2nc(Nc3ccc(N4CCC(N5CCN(C)CC5)CC4)cc3OC)ncc2Cl)c2ccccc21 >= 8?
Satisfied

Threshold query (pIC50 >= 8) on COc1cc(N2CCC(N3CCN(C)CC3)CC2)ccc1Nc1ncc(Cl)c(-c2cn(S(C)(=O)=O)c3ccccc23)n1
Satisfied

Textbook exercise: given the entry CCS(=O)(=O)n1cc(-c2nc(Nc3ccc(N4CCC(N5CCN(C)CC5)CC4)c(Cl)c3)ncc2Cl)c2ccccc21 , state whether its pIC50 is greater than or equal to 8.
Satisfied

---

biological target: Epidermal growth factor receptor (Homo sapiens, UniProt P00533, C797S/EX19DEL/T790M); experiment: Inhibition of EGFR 19 del/T790M/C797S mutant (unknown origin) by ELISA
Sequence (P00533 whole entry, looked up, stated change not applied): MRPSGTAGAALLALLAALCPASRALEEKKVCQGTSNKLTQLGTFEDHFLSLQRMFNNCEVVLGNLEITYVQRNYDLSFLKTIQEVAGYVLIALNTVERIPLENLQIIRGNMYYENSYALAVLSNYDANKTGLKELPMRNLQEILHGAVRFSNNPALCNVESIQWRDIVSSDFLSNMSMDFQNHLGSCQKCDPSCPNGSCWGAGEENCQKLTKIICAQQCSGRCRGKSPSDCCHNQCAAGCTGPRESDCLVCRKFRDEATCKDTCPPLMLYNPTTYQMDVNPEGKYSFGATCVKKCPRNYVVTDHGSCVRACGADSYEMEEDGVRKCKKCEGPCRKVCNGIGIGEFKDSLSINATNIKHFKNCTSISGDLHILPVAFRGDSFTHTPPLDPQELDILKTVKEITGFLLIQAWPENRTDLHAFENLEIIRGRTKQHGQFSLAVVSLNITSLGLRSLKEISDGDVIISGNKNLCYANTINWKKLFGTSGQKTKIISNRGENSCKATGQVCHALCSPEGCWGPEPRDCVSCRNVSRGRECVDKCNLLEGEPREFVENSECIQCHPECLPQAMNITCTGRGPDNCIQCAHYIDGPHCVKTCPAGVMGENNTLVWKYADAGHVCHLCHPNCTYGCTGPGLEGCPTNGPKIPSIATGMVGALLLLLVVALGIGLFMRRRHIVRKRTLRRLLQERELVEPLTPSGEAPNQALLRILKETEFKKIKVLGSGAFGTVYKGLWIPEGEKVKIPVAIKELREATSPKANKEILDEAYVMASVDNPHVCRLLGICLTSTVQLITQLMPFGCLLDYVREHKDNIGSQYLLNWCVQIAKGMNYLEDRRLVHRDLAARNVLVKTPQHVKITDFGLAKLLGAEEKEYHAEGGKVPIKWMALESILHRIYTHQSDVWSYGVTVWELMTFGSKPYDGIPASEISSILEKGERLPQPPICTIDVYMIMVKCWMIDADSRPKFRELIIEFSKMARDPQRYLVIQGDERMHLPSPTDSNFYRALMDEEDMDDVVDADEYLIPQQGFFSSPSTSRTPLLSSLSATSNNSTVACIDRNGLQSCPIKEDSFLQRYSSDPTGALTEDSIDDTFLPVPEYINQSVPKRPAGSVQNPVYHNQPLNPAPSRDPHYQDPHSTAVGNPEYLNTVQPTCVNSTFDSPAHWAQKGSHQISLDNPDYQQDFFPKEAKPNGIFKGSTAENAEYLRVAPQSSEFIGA
pIC50: −log10 of the molar value.
Parameter threshold = 8. Response is met when pIC50 meets or exceeds it, else not met.

{"Given Smiles": "CCc1cc(Nc2ncc(Cl)c(-c3cn(S(=O)(=O)CC)c4ccccc34)n2)c(OC)cc1N1CCC(N2CCN(C)CC2)CC1", "Class": "not met"}

Given CCS(=O)(=O)n1cc(-c2nc(Nc3cc(Cl)c(N4CCC(N5CCN(C)CC5)CC4)cc3OC)ncc2Cl)c2ccccc21 , state whether its pIC50 is at least 8.
not met

Has CCS(=O)(=O)n1cc(-c2nc(Nc3ccc(N4CCC(N5CCN(C)CC5)CC4)c(Cl)c3OC)ncc2Cl)c2ccccc21 a recorded pIC50 greater than or equal to 8?
not met

Textbook exercise: given the entry CCS(=O)(=O)n1cc(-c2nc(Nc3ccc(N4CCC(N5CCN(C)CC5)CC4)c(Cl)c3)ncc2Cl)c2ccccc21 , state whether its pIC50 is greater than or equal to 8.
met

Confirm if pIC50 reported for the compound COc1cc(N2CCC(N3CCN(C)CC3)CC2)ccc1Nc1ncc(Cl)c(-c2c[nH]c3ccccc23)n1 is 8 or above.
not met

State whether the measured pIC50 reaches 8, counting equality as reaching it, for CCS(=O)(=O)n1cc(-c2nc(Nc3cc(C(C)C)c(N4CCC(N5CCN(C)CC5)CC4)cc3OC)ncc2Cl)c2ccccc21
not met

Confirm if pIC50 reported for the compound COc1cc(N2CCC(N3CCN(C)CC3)CC2)ccc1Nc1ncc(Cl)c(-c2cn(S(=O)(=O)C3CC3)c3ccccc23)n1 is 8 or above.
not met

In plain terms: is recorded pIC50 at least 8 for CCS(=O)(=O)n1cc(-c2nc(Nc3ccc(N4CCC(N5CCN(C)CC5)CC4)cc3OC)ncc2Cl)c2ccccc21 ?
met

Quick check, pIC50 >= 8? CCS(=O)(=O)n1cc(-c2nc(Nc3cc(C)c(N4CCC(N5CCN(C)CC5)CC4)cc3OC)ncc2Cl)c2ccccc21
not met

Please tell me: is the compound COc1cc(N2CCC(N3CCN(C)CC3)CC2)ccc1Nc1ncc(Cl)c(-c2cn(S(=O)(=O)C(C)C)c3ccccc23)n1 at or over 8 in terms of pIC50?
not met

Given COc1cc(N2CCC(N3CCN(C)CC3)CC2)ccc1Nc1ncc(Cl)c(-c2cn(S(C)(=O)=O)c3ccccc23)n1 , state whether its pIC50 is at least 8.
met

Hi team, for CCS(=O)(=O)n1cc(-c2nc(Nc3cc(Cl)c(N4CCC(N5CCN(C)CC5)CC4)cc3C)ncc2Cl)c2ccccc21 , is the recorded pIC50 at or above 8?
met

---

Listed molecules paired with reported IC50
system: BaF3; test: Antiproliferative activity against mouse BaF3 cells stably expressing EGFR L858R/T790M/C797S mutant assessed as inhibition of cell growth incubated for 72 hrs by CCK-8 assay; format: functional, cell-based; details: BaF3, 72 h
Use nM as the unit, but write only the number.

Previously resolved entries follow.
{"Given Smiles": "COc1cc(N2CCC(N3CCN(C)CC3)CC2)ccc1Nc1ncc(Cl)c(Nc2ccccc2P(C)(C)=O)n1", "Reading": 610}
{"Given Smiles": "CCS(=O)(=O)n1cc2c3ccc(cc31)OCCCCCCOc1cc(ccc1N1CCOCC1)Nc1ncc(Cl)c-2n1", "Reading": 16}
{"Given Smiles": "CCc1cc(N2CCOCC2)c2cc1Nc1ncc(Cl)c(n1)-c1cn(S(=O)(=O)CC)c3cc(ccc13)OCCCCCCO2", "Reading": 142}

Now, please, on to the next molecule.
Supply recorded IC50 for CCS(=O)(=O)n1cc2c3ccc(cc31)OCCCCCCOc1cc(c(F)cc1N1CCOCC1)Nc1ncc(Cl)c-2n1 here.
66
